molecular target: WRN helicase (Homo sapiens (Human)); test: In vitro enzymatic activity assay on WRN helicase (DNA dependent ATPase assay, ADP-Glo); assay type: biochemical; settings: geometric means of at least 2 determinations; read-out: WRN ATPase Activity (IC50)
Sequence (Q14191 517-1238): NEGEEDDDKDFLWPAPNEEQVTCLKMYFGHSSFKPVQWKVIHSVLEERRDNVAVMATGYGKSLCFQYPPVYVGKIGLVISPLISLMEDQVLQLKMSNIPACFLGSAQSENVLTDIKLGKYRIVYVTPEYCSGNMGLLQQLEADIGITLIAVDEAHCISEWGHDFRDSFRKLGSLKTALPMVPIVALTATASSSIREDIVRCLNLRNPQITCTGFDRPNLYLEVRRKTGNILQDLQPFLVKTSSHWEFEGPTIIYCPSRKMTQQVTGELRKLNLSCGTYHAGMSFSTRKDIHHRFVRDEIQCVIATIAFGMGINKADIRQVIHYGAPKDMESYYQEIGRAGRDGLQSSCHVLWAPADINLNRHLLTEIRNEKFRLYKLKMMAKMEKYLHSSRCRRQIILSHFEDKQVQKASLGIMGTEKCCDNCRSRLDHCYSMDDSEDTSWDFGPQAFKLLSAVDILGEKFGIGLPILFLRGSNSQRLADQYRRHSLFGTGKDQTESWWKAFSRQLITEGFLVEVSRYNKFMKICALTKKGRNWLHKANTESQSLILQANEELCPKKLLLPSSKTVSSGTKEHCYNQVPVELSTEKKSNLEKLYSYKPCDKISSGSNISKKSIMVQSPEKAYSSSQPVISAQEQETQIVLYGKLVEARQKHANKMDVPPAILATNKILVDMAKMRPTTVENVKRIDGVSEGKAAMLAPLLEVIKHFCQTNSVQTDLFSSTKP
pIC50: −log10 of the molar value.
# maps each entry to its pIC50
Metric name: pIC50

INSERT INTO results (compound, observed) VALUES
  ('CCc1c(N2CCN(C(=O)c3ncccc3O)CC2)c(=O)n2nc(N3CCOCC3)nc2n1CC(=O)Nc1cc(F)c(C(F)(F)F)cc1Cl [Example 7]', 7.05),
  ('CCc1c(N2CCN(C(=O)c3nccc(Cl)c3O)CC2)c(=O)n2nc(N3CCC[C@H](F)C3)nc2n1CC(=O)Nc1ccc(C(F)(F)F)cc1C [Example 85]', 7.15),
  ('CCc1c(N2CCN(C(=O)c3nccc(Cl)c3O)CC2)c(=O)n2nc(C3=CCOCC3)nc2n1CC(=O)Nc1ccc(C(F)(F)F)cc1C [Example 61]', 7.30),
  ('CCc1c(N2CCN(C(=O)c3ncccc3O)CC2)c(=O)n2nc(N3CC4CC(C3)O4)nc2n1CC(=O)Nc1ccc(C(F)(F)F)cc1C [Example 21]', 6.74),
  ('CCc1c(N2CCN(C(=O)c3ncccc3O)CC2)c(=O)n2nc(N3CCOCC3)nc2n1CC(=O)Nc1cc(F)c(C(F)(F)F)cc1C [Example 5]', 7.05),
  ('CCc1c(N2CCN(C(=O)c3nc(C)ncc3O)CC2)c(=O)n2nc(C3=CCOCC3)nc2n1CC(=O)Nc1ccc(C(F)(F)F)cc1C [Example 68]', 6.92),
  ('CCc1c(N2CCN(C(=O)c3ncccc3O)CC2)c(=O)n2nc(N3CCC[C@H](F)C3)nc2n1CC(=O)Nc1ccc(C(F)(F)F)nc1Cl [Example 16b]', 6.74),
  ('CCc1c(N2CCN(C(=O)c3ncccc3O)CC2)c(=O)n2nc(N3CCOCC3)nc2n1CC(=O)Nc1ccc(C(F)(F)F)cc1Cl [Example 2]', 7.10),
  ('CCc1c(N2CCN(C(=O)c3ncccc3O)CC2)c(=O)n2nc(C3=CCC(OC)CC3)nc2n1CC(=O)Nc1ccc(C(F)(F)F)nc1C (racemic) [Example 26]', 6.60),
  ('CCc1c(N2CCN(C(=O)c3ncnc(C)c3O)CC2)c(=O)n2nc(C3=CCOCC3)nc2n1CC(=O)Nc1cc(F)c(C=O)cc1C [Example 54]', 5.89),
  ('CCc1c(N2CCN(C(=O)c3ncnc(C)c3O)[C@@H](C)[C@H]2C)c(=O)n2nc(C3=CCOCC3)nc2n1CC(=O)Nc1ccc(C(F)(F)F)cc1Cl (single isomer, unassigned) [Example 121]', 6.07),
  ('CCc1c(N2CCN(C(=O)c3ncccc3O)CC2)c(=O)n2nc(C3=CC[C@H](OC)CC3)nc2n1CC(=O)Nc1ccc(C(F)(F)F)nc1Cl (single isomer, unassigned) [Example 25b]', 7.00),
  ('CCc1c(N2CCN(C(=O)c3nccc(OC(F)(F)F)c3O)CC2)c(=O)n2nc(C3=CCOCC3)nc2n1CC(=O)Nc1ccc(C(F)(F)F)cc1C [Example 67]', 6.82),
  ('CCc1c(N2CCN(C(=O)c3ncncc3O)CC2)c(=O)n2nc(C3=CCOCC3)nc2n1CC(=O)Nc1ccc(S(F)(F)(F)(F)F)cc1Cl [Example 52]', 7.40),
  ('CCc1c(N2CCN(C(=O)c3ncccc3O)CC2)c(=O)n2nc(N3CCCC(F)C3)nc2n1CC(=O)Nc1ccc(C(F)(F)F)cc1C (racemic) [Example 14]', 6.85),
  ('CCc1c(N2CCN(C(=O)c3ncccc3O)CC2)c(=O)n2nc(N3CCN(CC(=O)O)CC3)nc2n1CC(=O)Nc1ccc(C(F)(F)F)cc1Cl [Example 82]', 6.55),
  ('CCc1c(N2CCN(C(=O)c3ncnc(C)c3O)CC2)c(=O)n2nc(C3=CCOCC3)nc2n1CC(=O)Nc1ccc(C(F)(F)F)cc1 [Example 73]', 7.15),
  ('CCc1c(N2CCN(C(=O)c3ncccc3O)CC2)c(=O)n2nc(N3CCOCC3)nc2n1CC(=O)Nc1ccc(C(F)(F)F)cc1F [Example 11]', 6.96),
  ('CCc1c(N2CCN(C(=O)c3ncccc3O)CC2)c(=O)n2nc(C3=CCCCO3)nc2n1CC(=O)Nc1ccc(C(F)(F)F)cc1C [Example 83]', 7.05),
  ('CCc1c(N2CCN(C(=O)c3ncccc3O)CC2)c(=O)n2nc(C3=CCCCO3)nc2n1CC(=O)Nc1ccc(C(F)(F)F)cc1 [Example 84]', 7.30),
  ('CCc1c(N2CCN(C(=O)c3ncnc(C)c3O)CC2)c(=O)n2nc(C3=CCN(C(=O)OC(C)(C)C)CC3)nc2n1CC(=O)Nc1ccc(C(F)(F)F)cc1C [Example 130]', 7.00),
  ('CCc1c(N2CCN(C(=O)c3ncccc3O)CC2)c(=O)n2nc(C3=CC[C@H](OC)CC3)nc2n1CC(=O)Nc1ccc(C(F)(F)F)cc1 (single isomer, unassigned) [Example 81a]', 7.40),
  ('CCc1c(N2CCN(C(=O)c3ncccc3O)CC2)c(=O)n2nc(-c3ccc(C)nc3)nc2n1CC(=O)Nc1ccc(C(F)(F)F)cc1C [Example 77]', 6.68),
  ('CCc1c(N2CCN(C(=O)c3ncccc3O)CC2)c(=O)n2nc(C3=CCOCC3)nc2n1CC(=O)Nc1ccc(C(F)(F)F)nc1Cl [Example 45]', 6.89);

The origin of these recorded values is patent US11878973B2.
